System: Escherichia coli ATCC 25922
assay details: Minimal Inhibitory Concentration (MIC) broth dilution assay, E. coli ATCC 25922
Format: cell-based
conditions: Escherichia coli, ATCC25922, read-out: MIC E. coli ATCC 25922; broth dilution, 20 hours at 35° C., CAMHB; read-out: MIC E. coli K-12 ATCC 25922
Some molecules, each annotated with its measured MIC.
assay readout: MIC (µg/mL)

INSERT INTO assay_data (molecule, result_units, numeric_readout) VALUES
  ('NCCNCCNC(=O)c1ccc(C(F)(F)c2cc(Cl)nc(N3CCN(S(=O)(=O)c4ccc(N5C[C@H](N)CC5=O)cc4)CC3)c2)nc1', 'µg/mL', 1.6),
  ('NCC(N)CNC(=O)[C@H]1CC[C@H](C(F)(F)c2cc(Cl)nc(N3CCN(S(=O)(=O)c4ccc(N5C[C@H](N)CC5=O)cc4)CC3)c2)CC1 (stereo partly shown)', 'µg/mL', 2.2),
  ('CNC(=O)c1ccc(C(F)(F)c2cc(Cl)nc(N3CCN(S(=O)(=O)c4ccc(N5CC(NCCCN)CC5=O)cc4)CC3)c2)cc1 (stereo not shown)', 'µg/mL', 2.8),
  ('NCC(=O)NNC(=O)[C@H]1CC[C@H](C(F)(F)c2cc(Cl)nc(N3CCN(S(=O)(=O)c4ccc(N5C[C@H](N)CC5=O)cc4)CC3)c2)CC1', 'µg/mL', 1.1);

---

assay details: Human microsome stability assay
Type: in vitro ADME
conditions: human liver microsomes 0.5 mg/mL, 37° C., pH 7.4, NADPH regenerating system
assay readout: Clearance of Human microsome (mL/min/kg)

INSERT INTO results (molecule, assay_readout, numeric_readout) VALUES
  ('NCC1(NC(=O)[C@H]2CC[C@H](C(F)(F)c3cc(Cl)nc(N4CCN(S(=O)(=O)c5ccc(N6C[C@H](N)CC6=O)cc5)CC4)c3)CC2)CC1', 'Clearance of Human microsome', 6.19),
  ('NCCCNC(=O)C12CC(C(F)(F)c3cc(Cl)nc(N4CCN(S(=O)(=O)c5ccc(N6C[C@H](N)CC6=O)cc5)CC4)c3)(C1)C2', 'Clearance of Human microsome', 6.15),
  ('C[N+](C)(CCCN)CCCNC(=O)[C@H]1CC[C@H](C(F)(F)c2cc(Cl)nc(N3CCN(S(=O)(=O)c4ccc(N5C[C@H](N)CC5=O)cc4)CC3)c2)CC1', 'Clearance of Human microsome', 9.7),
  ('NCCCNC(=O)C12CCC(C(F)(F)c3cc(Cl)nc(N4CCN(S(=O)(=O)c5ccc(N6C[C@H](N)CC6=O)cc5)CC4)c3)(CC1)C2', 'Clearance of Human microsome', 6.15),
  ('NCCCNC(=O)[C@H]1CC[C@@H](C(F)(F)c2cc(Cl)nc(N3CCN(S(=O)(=O)c4ccc(N5C[C@H](N)CC5=O)cc4)CC3)c2)CC1', 'Clearance of Human microsome', 6.15),
  ('NCCCNC(=O)[C@H]1CC[C@H](C(F)(F)c2cc(Cl)nc(N3CCN(S(=O)(=O)c4ccc(N5C[C@H](N)CC5=O)nc4)CC3)c2)CC1', 'Clearance of Human microsome', 6.15),
  ('C[N+]1(CCN)CCN(C(=O)[C@H]2CC[C@H](C(F)(F)c3cc(Cl)nc(N4CCN(S(=O)(=O)c5ccc(N6C[C@H](N)CC6=O)cc5)CC4)c3)CC2)CC1', 'Clearance of Human microsome', 10.73),
  ('C[N+]1(CCCNC(=O)c2ccc(C(F)(F)c3cc(Cl)nc(N4CCN(S(=O)(=O)c5ccc(N6C[C@H](N)CC6=O)cc5)CC4)c3)cc2)CCCC1', 'Clearance of Human microsome', 6.80),
  ('NC1CC(NC(=O)[C@H]2CC[C@H](C(F)(F)c3cc(Cl)nc(N4CCN(S(=O)(=O)c5ccc(N6C[C@H](N)CC6=O)cc5)CC4)c3)CC2)C1 (stereo partly shown)', 'Clearance of Human microsome', 6.90),
  ('NCCCNC(=O)[C@H]1CC[C@H](C(F)(F)c2cc(Cl)nc(N3CCN(S(=O)(=O)c4ccc(N5C[C@H](N)CC5=O)cc4)CC3)c2)CC1', 'Clearance of Human microsome', 11.37),
  ('NCCCN(CCCN)C(=O)C12CCC(C(F)(F)c3cc(Cl)nc(N4CCN(S(=O)(=O)c5ccc(N6C[C@H](N)CC6=O)cc5)CC4)c3)(CC1)CC2', 'Clearance of Human microsome', 8.79),
  ('NCCCNC(=O)[C@H]1CC[C@H](C(F)(F)c2cc(Cl)nc(N3CCN(S(=O)(=O)c4ccc(N5C[C@@H](CO)OC5=O)cc4)CC3)c2)CC1', 'Clearance of Human microsome', 8.04),
  ('CC(=O)N1CCc2cc(S(=O)(=O)N3CCN(c4cc(Cl)cc(C(F)(F)F)c4)CC3)ccc21 [JH-LPH-33, reference compound]', 'Clearance of Human microsome', 20.94),
  ('CN(C)CCCNC(=O)c1cnc(C(F)(F)c2cc(Cl)nc(N3CCN(S(=O)(=O)c4ccc(N5C[C@H](N)CC5=O)cc4)CC3)c2)cn1', 'Clearance of Human microsome', 6.15),
  ('NCCN1CCN(C(=O)[C@H]2CC[C@H](C(F)(F)c3cc(Cl)nc(N4CCN(S(=O)(=O)c5ccc(N6C[C@H](N)CC6=O)cc5)CC4)c3)CC2)CC1', 'Clearance of Human microsome', 6.77),
  ('NCCOCCNC(=O)[C@H]1CC[C@H](C(F)(F)c2cc(Cl)nc(N3CCN(S(=O)(=O)c4ccc(N5C[C@H](N)CC5=O)cc4)CC3)c2)CC1', 'Clearance of Human microsome', 11.12);
